Hey, just so you know, these numbers are from ChEMBL document CHEMBL5154892.

test protocol: Binding affinity to Zika virus NS2B-NS3 protease using Phac-Leu-Lys-Lys-Arg-AMC as substrate measured immediately upto 10 mins by fluorogenic assay
*1 amine or outer side, *2 acyl side, *3 side chain or, on linkers, in order; H or OH if unused. Where a SMILES comes first, the peptide text is derived from it. [ ]: non-standard residue; d: D form. X2 = N=C(N)N[C@H](CCOCN[*:1])C(=O)[*:2]; X3 = O=C([C@@H](CN[*:1])Cc1ccccc1)[*:2]
Recorded pKi, one value per entry.
Keep it numeric: pKi is minus log10 of the concentration in mol/L.

Task: Given the compound `N=C(N)N[C@@H]1CCOCNC(=O)[C@H](CCCCN)NC(=O)[C@H](CCCCN)NC(=O)[C@@H](CC2CCCCC2)NC(=O)CCNC(=O)CNC1=O` , what is its reported pKi?
Output: 8.16

Task: Looking for the measured pKi of N=C(N)N[C@@H]1CCOCNC(=O)[C@H](CCCCN)NC(=O)[C@H](CCCCN)NC(=O)[C@H](Cc2ccccc2)CNC(=O)CNC(=O)CNC1=O (cyclo(GG[X3]KK[X2])) , can you help?
Output: 7.07

Task: Look up pKi: `N=C(N)N[C@@H]1CCOCNC(=O)[C@H](CCCCN)NC(=O)[C@H](CCCCN)NC(=O)CNC(=O)Cc2cccc(c2)CNC1=O`
Output: 7.39

----------
# Ki annotations
test protocol: Binding affinity to West Nile virus NSB2 (52 to 96 amino acids)-NS3 (1 to 184 amino acids) protease using Phac-Leu-Lys-Lys-Arg-AMC as substrate measured immediately upto 10 mins by fluorogenic assay
*1 amine or outer side, *2 acyl side, *3 side chain or, on linkers, in order; H or OH if unused. Where a SMILES comes first, the peptide text is derived from it. [ ]: non-standard residue; d: D form. X2 = N=C(N)N[C@H](CCOCN[*:1])C(=O)[*:2]; βAla = NCCC(=O)O; Sar = CNCC(=O)O
The reply should contain only the number, in nM.

Below, 7 compounds whose answers are already recorded.
N=C(N)N[C@@H]1CCOCNC(=O)[C@H](CCCCN)NC(=O)[C@H](CCCCN)NC(=O)Cc2cccc(c2)CNC(=O)[C@@H](Cc2ccccc2)NC1=O = 693
CCCC[C@H]1NC(=O)CCNC(=O)CNC(=O)[C@H](NC(=N)N)CCOCNC(=O)[C@H](CCCCN)NC(=O)[C@H](CCCCN)NC1=O = 892
CN1CC(=O)NCC(=O)NCCC(=O)N[C@@H](CCCCN)C(=O)N[C@@H](CCCCN)C(=O)NCOCC[C@@H](NC(=N)N)C1=O (cyclo(G[βAla]KK[X2][Sar])) = 30500
C[C@H]1NC(=O)CCNC(=O)CNC(=O)[C@H](NC(=N)N)CCOCNC(=O)[C@H](CCCCN)NC(=O)[C@H](CCCCN)NC1=O = 1430
N=C(N)N[C@@H]1CCOCNC(=O)[C@H](CCCCN)NC(=O)[C@H](CCCCN)NC(=O)[C@@H](Cc2ccccc2)NC(=O)CCNC(=O)CNC1=O.O=C(O)C(F)(F)F = 1920
N=C(N)N[C@@H]1CCOCNC(=O)[C@H](CCCCN)NC(=O)[C@H](CCCCN)NC(=O)CCNC(=O)Cc2cccc(c2)CNC1=O = 56500
N=C(N)N[C@@H]1CCOCNC(=O)[C@H](CCCCN)NC(=O)[C@H](CCCCN)NC(=O)CNC(=O)Cc2cccc(c2)CNC1=O = 1760

Task: Recorded Ki of `N=C(N)N[C@@H]1CCOCNC(=O)[C@H](CCCCN)NC(=O)[C@H](CCCCN)NC(=O)[C@H](Cc2ccccc2)NC(=O)CNC(=O)CNC1=O` , please.
Output: 657

----------
test protocol: Binding affinity to Zika virus NS2B-NS3 protease using Phac-Leu-Lys-Lys-Arg-AMC as substrate measured immediately upto 10 mins by fluorogenic assay
*1 amine or outer side, *2 acyl side, *3 side chain or, on linkers, in order; H or OH if unused. Where a SMILES comes first, the peptide text is derived from it. [ ]: non-standard residue; d: D form. X2 = N=C(N)N[C@H](CCOCN[*:1])C(=O)[*:2]; NMeβAla = CN(CCC(=O)[*:2])[*:1]
Reported Ki values are given for each entry in this list.
Numeric answer plus unit only.

Some molecules with known Ki results, for comparison:
N=C(N)N[C@@H]1CCOCNC(=O)[C@H](CCCCN)NC(=O)[C@H](CCCCN)NC(=O)[C@@H](Cc2ccccc2)NC(=O)CNC(=O)CNC1=O (racemic) = 139 nM
N=C(N)N[C@@H]1CCOCNC(=O)[C@H](CCCCN)NC(=O)[C@H](CCCCN)NC(=O)[C@H](Cc2ccccc2)NC(=O)CNC(=O)CNC1=O = 31.9 nM
CC(C)[C@H]1NC(=O)[C@H](NC(=N)N)CCOCNC(=O)[C@H](CCCCN)NC(=O)[C@H](CCCCN)NC(=O)Cc2cccc(c2)CNC1=O = 7.74 nM
CC(C)[C@H]1NC(=O)CCNC(=O)CNC(=O)[C@H](NC(=N)N)CCOCNC(=O)[C@H](CCCCN)NC(=O)[C@H](CCCCN)NC1=O.O=C(O)C(F)(F)F = 8.26 nM
C[C@H]1NC(=O)CNC(=O)CNC(=O)[C@H](NC(=N)N)CCOCNC(=O)[C@H](CCCCN)NC(=O)[C@H](CCCCN)NC1=O = 187 nM

Task: Report Ki for `N=C(N)N[C@@H]1CCOCNC(=O)[C@H](CCCCN)NC(=O)[C@H](CCCCN)NC(=O)[C@@H](Cc2ccccc2)NC(=O)CCNC(=O)CNC1=O.O=C(O)C(F)(F)F` please.
Output: 3.06 nM

Task: Fill in: Ki of `CC(C)C[C@H]1NC(=O)[C@H](NC(=N)N)CCOCNC(=O)[C@H](CCCCN)NC(=O)[C@H](CCCCN)NC(=O)Cc2cccc(c2)CNC1=O` is ___
Output: 9.53 nM

Task: Which Ki is reported for this molecule? `CC(C)[C@@H]1NC(=O)CCNC(=O)CNC(=O)[C@H](NC(=N)N)CCOCNC(=O)[C@H](CCCCN)NC(=O)[C@H](CCCCN)NC1=O`
Output: 340 nM

Task: Item `N=C(N)N[C@@H]1CCOCNC(=O)[C@H](CCCCN)NC(=O)[C@H](CCCCN)NC(=O)Cc2cccc(c2)CNC(=O)[C@@H](Cc2ccccc2)NC1=O` has what recorded Ki?
Output: 5.34 nM

Task: Please look up its Ki: CN1CCC(=O)N[C@@H](CCCCN)C(=O)N[C@@H](CCCCN)C(=O)NCOCC[C@@H](NC(=N)N)C(=O)NCC(=O)NCC1=O (cyclo(GG[NMeβAla]KK[X2]))
Output: 490 nM
